Target: glutathione S-transferase (GST)-fused full-length human Syk protein (Homo sapiens, UniProt P43405)
Construct: (GST)-fused full-length human Syk protein; GST (glutathione S-transferase); purchased Carna Biosciences
Test: Syk enzyme assay
Assay type: biochemical
Details: Syk enzyme assay, Test Example 1; read-out: IC50 of Syk-inhibitory activity
Procedure: A glutathione S-transferase (GST)-fused full-length human Syk protein (Carna Biosciences), which had been generated using a Baculovirus expression system, was used in the Syk enzyme assay. 15 μl of a reaction solution (1.2 ng Syk, 20 mM HEPES, 10 mM MgCl2, 50 mM NaCl, 2 mM DTT, 0.05% BSA, pH 7.0) containing a Syk protein and a predetermined concentration of a test compound was shaken for 2 minutes, and it was then left at rest at room temperature for 13 minutes. […]
This section presents compounds with their documented IC50 values.

# COMPOUND, IC50
rows = [
    ("CCn1ncc2ccc(Nc3nc(NC4CCCCC4N)c(F)cc3C(N)=O)cc21 (centres unmarked) [Example 002-185]", "< 10 nM"),
]

# lookup: IC50 of C[C@H](N)[C@@H](CC1CC1)Nc1nc(Nc2ccc3c(c2)c(F)nn3C)c(C(N)=O)cc1F [Example 006-439]
10 to 50 nM

Next up: COc1ccc2cc(Nc3nc(N[C@H](C)[C@H](C)N)c(F)cc3C(N)=O)cnc2c1 (racemic) [Example 006-174]
< 10 nM

Next up: NC(=O)c1cc(F)c(NC2CCCCC2N)nc1Nc1cncc(-c2ccccc2)c1 (centres unmarked) [Example 002-001]
< 10 nM

Next up: CC(C)C[C@H](CN)Nc1nc(Nc2cncc(-n3cccn3)c2)c(C(N)=O)cc1F [Example 006-170]
< 10 nM

Next up: CCCCOCCOCCOc1ccc2cc(Nc3nc(NC4CCCCC4N)c(F)cc3C(N)=O)ccc2n1 (centres unmarked) [Example 002-111]
10 to 50 nM

Next up: CN(C)C(=O)c1cc2c(Nc3nc(N[C@@H]4CCCC[C@@H]4N)c(F)cc3C(N)=O)ccnc2n1C [Example 029-009]
100 to 1000 nM

Next up: NC(=O)c1cc(F)c(NCc2cnc[nH]2)nc1Nc1cnc2ccccc2c1 [Example 012-020]
100 to 1000 nM

###

biological target: glutathione S-transferase (GST)-fused full-length human Syk protein (Homo sapiens); construct: (GST)-fused full-length human Syk protein; GST (glutathione S-transferase); purchased Carna Biosciences; experiment: Syk enzyme assay; type: biochemical; conditions: Syk enzyme assay, Test Example 1; read-out: IC50 of Syk-inhibitory activity
This section presents compounds with their documented IC50 values.

# COMPOUND, TARGET_DESC, IC50
data = [
    ("CC[C@@H](Nc1nc(Nc2ccnc(OC)c2)c(C(N)=O)cc1F)[C@H](C)N", "glutathione S-transferase (GST)-fused full-length human Syk protein (Homo sapiens)", "< 10 nM"),
    ("Cn1nnc2cc(C(=O)Nc3cncc(Nc4nc(N[C@@H]5CCCC[C@@H]5N)c(F)cc4C(N)=O)c3)ccc21 (relative stereo)", "glutathione S-transferase (GST)-fused full-length human Syk protein (Homo sapiens)", "< 10 nM"),
    ("COc1ccc2cc(Nc3nc(N[C@H](CC4CC4)[C@H](C)N)c(F)cc3C(N)=O)cnc2c1", "glutathione S-transferase (GST)-fused full-length human Syk protein (Homo sapiens)", "< 10 nM"),
    ("Cc1cc(Nc2nc(N[C@@H]3CCCC[C@@H]3N)c(F)cc2C(N)=O)cnc1C1CC1", "glutathione S-transferase (GST)-fused full-length human Syk protein (Homo sapiens)", "< 10 nM"),
    ("CCCC[C@H](CN)Nc1nc(Nc2ccc3cnn(C)c3c2)c(C(N)=O)cc1F", "glutathione S-transferase (GST)-fused full-length human Syk protein (Homo sapiens)", "< 10 nM"),
    ("NC(=O)c1cc(F)c(N[C@@H]2CCCC[C@@H]2N)nc1Nc1ccc2[nH]c(C(=O)NCCN3CCOCC3)cc2c1 (relative stereo)", "glutathione S-transferase (GST)-fused full-length human Syk protein (Homo sapiens)", "< 10 nM"),
    ("CCC[C@@H](Nc1nc(Nc2cncc(-c3cccc(OC)c3F)c2)c(C(N)=O)cc1F)[C@H](C)N", "glutathione S-transferase (GST)-fused full-length human Syk protein (Homo sapiens)", "< 10 nM"),
    ("NC(=O)c1cc(F)c(NC2CCCCC2N)nc1Nc1cncc(-c2ccc([N+](=O)[O-])cc2)c1 (stereo not drawn)", "glutathione S-transferase (GST)-fused full-length human Syk protein (Homo sapiens)", "10 to 50 nM"),
]

Report IC50 for NC(=O)c1cc(F)c(N[C@@H]2CCCC[C@@H]2N)nc1Nc1cnc(N2CCOCC2)c(F)c1 [Example 006-395] tested on glutathione S-transferase (GST)-fused full-length human Syk protein (Homo sapiens).
10 to 50 nM

Next up: CCC[C@@H](Nc1nc(Nc2cncc(C)c2)c(C(N)=O)cc1F)[C@H](C)N
< 10 nM

Next up: CCc1nn(CC)c2ccc(Nc3nc(N[C@H](C4CC4)[C@H](C)N)c(F)cc3C(N)=O)cc12
< 10 nM

Next up: NC(=O)c1cc(F)c(N[C@@H]2CCCC[C@@H]2N)nc1Nc1cnc2ncsc2c1
< 10 nM

Next up: CN1CCc2ccc(Nc3nc(N[C@@H]4CCCC[C@@H]4N)c(F)cc3C(N)=O)cc2C1 (relative stereo)
10 to 50 nM

Next up: NC[C@@H](CC1CC1)Nc1nc(Nc2cncc(-c3ccccc3)c2)c(C(N)=O)cc1F
10 to 50 nM

Next up: C[C@H](N)[C@@H](CC1CC1)Nc1nc(Nc2ccc3c(c2)c(C2CC2)nn3C)c(C(N)=O)cc1F
< 10 nM
